system: E. coli TESEC Mtb Alr; experiment: growth (OD600 after 10 h); higher = more growth (less inhibition); conditions: arabinose 1000 nM; compound 0.1 mM; raw OD600 reference: median of DMSO wells 0.294, cell-free background 0.041
Counter-ions that a name gives are not always drawn.
Measurement label: growth
Answer as a number with no unit attached.

Which growth reading was recorded for the compound CC(CCc1ccccc1)NC(C)C(O)c1ccc(O)cc1 (stereo not drawn) ? 0.297

Let us now turn to C[C@]12Cc3c[nH]nc3C[C@@H]1CC[C@@H]1[C@@H]2CC[C@@]2(C)[C@H]1CC[C@]2(C)O 0.256

Now the compound O[C@@H]1CCCC[C@H]1N1CCC(c2ccccc2)CC1 [L(-)-vesamicol hydrochloride] 0.281

Next compound: CCCC(C)C1(CC)C(=O)NC(=O)NC1=O (stereo not drawn) 0.279

Now try C[C@]12CC[C@H](O)C[C@H]1CC[C@@H]1[C@@H]2C[C@@H](O)[C@]2(C)[C@@H](C3=CC(=O)OC3)CC[C@]12O . 0.299

---

tested on: E. coli TESEC Mtb Asd; assay: growth (OD600 after 10 h); higher = more growth (less inhibition); conditions: arabinose induction (level): Low; compound 0.1 mM; raw OD600 reference: median of DMSO wells 0.417, cell-free background 0.041
Counter-ions that a name gives are not always drawn.
growth reference

Test system E. coli TESEC Mtb Asd; read-out growth; what value for COc1ccc(C(CN(C)C)C2(O)CCCCC2)cc1 (stereo not drawn) ? 0.459

Likewise for CCCC(C)C1(CC)C(=O)NC(=O)NC1=O (stereo not drawn) ? 0.399

Entry to check: C[C@]12CC[C@H](O)C[C@@H]1CC[C@@H]1[C@@H]2CC[C@]2(C)C(=O)CC[C@@H]12 [Epiandrosterone] 0.168

For CC(NC(C)(C)C)C(=O)c1cccc(Cl)c1 (stereo not drawn) [Bupropion hydrochloride] then? 0.41

What do we get for COc1cccc(C2(O)CCCCC2CN(C)C)c1 (stereo not drawn) [Tramadol hydrochloride] ? 0.403

---

test system: E. coli TESEC Mtb Asd; test: growth (OD600 after 10 h); higher = more growth (less inhibition); conditions: arabinose induction (level): High; compound 0.1 mM; raw OD600 reference: median of DMSO wells 0.331, cell-free background 0.041
Where a name gives a salt, the structure may show the parent alone.
Measurement label: growth
Give the figure by itself; no unit, no explanation.

COc1ccc(CN2CCNCC2)c(OC)c1OC [Trimetazidine dihydrochloride]: 0.301
C[N+]12CCC(CC1)C(OC(=O)C(O)(c1ccccc1)c1ccccc1)C2 (stereo unspecified) [Clidinium bromide]: 0.288
CC[C@@]1([C@@H]2O[C@@H]([C@H]3O[C@@](O)(CO)[C@H](C)C[C@@H]3C)C[C@@H]2C)CC[C@H]([C@]2(C)CC[C@]3(C[C@H](O)[C@@H](C)[C@@H]([C@@H](C)[C@@H](OC)[C@H](C)C(=O)O)O3)O2)O1 [Monensin sodium salt]: 0.295

// lookup growth for CN1C(=O)CCS(=O)(=O)C1c1ccc(Cl)cc1 (stereo unspecified) [Chlormezanone] 0.328

What would you report for C[C@]12Cc3c[nH]nc3C[C@@H]1CC[C@@H]1[C@@H]2CC[C@@]2(C)[C@H]1CC[C@]2(C)O [Stanozolol] ? 0.157

Record: O=c1[nH]oc2c1CCNC2 [THIP Hydrochloride] 0.262

Same question, CCC1(CC)C(=O)C=CNC1=O [Pyrithyldione] this time 0.398

Same lookup for CN1C[C@H](CNC(=O)OCc2ccccc2)C[C@@H]2c3cccc4c3c(cn4C)C[C@H]21 [Metergoline] , please. 0.0522

And CN1[C@@H]2CC[C@H]1C[C@@H](OC(=O)C(CO)c1ccccc1)C2 (stereo partly specified) [Atropine sulfate monohydrate] ? 0.339

Consider next the compound CC(=O)O[C@H]1CC[C@@]2(C)C(=CC[C@@H]3[C@@H]2CC[C@]2(C)C(=O)CC[C@@H]32)C1 [Dehydroisoandosterone 3-acetate] in the same way. 0.315

Now this one: Fc1ccc(C(OCCN2CCN(CCCc3ccccc3)CC2)c2ccc(F)cc2)cc1 0.0464

Moving on to the next compound: CC1C=CC=CCCC=CC=CC=CC=CC(OC2OC(C)C(O)C(N)C2O)CC2OC(O)(CC(O)C(O)CCC(O)CC(O)CC(O)CC(=O)OC(C)C(C)C1O)CC(O)C2C(=O)O (stereo unspecified) [Nystatine] 0.23

Could you do the same for NCC1(CC(=O)O)CCCCC1 [Gabapentin] , please? 0.478

Follow-up entry: C[N+]1(C)CCOC(O)(c2ccc(-c3ccc(C4(O)C[N+](C)(C)CCO4)cc3)cc2)C1 (stereo unspecified) [Hemicholinium bromide] 0.352

Another compound: S=C(NC1CCCCC1)N1CCC(c2cnc[nH]2)CC1 [Thioperamide maleate] 0.273

// next record CC(C)C[C@H](CN)CC(=O)O [Pregabalin] 0.28

---

system: E. coli TESEC Alr+ wild-type control; assay: growth (OD600 after 10 h); higher = more growth (less inhibition); conditions: compound 0.1 mM; raw OD600 reference: median of DMSO wells 0.49, cell-free background 0.052
Where a name gives a salt, the structure may show the parent alone.
Measurement label: growth

CN1C[C@H](CNC(=O)OCc2ccccc2)C[C@@H]2c3cccc4c3c(cn4C)C[C@H]21: 0.0493
CC(C)(C)NCC(O)c1ccccc1Cl (stereo unspecified): 0.507
CN(C)C(=O)Oc1ccc[n+](C)c1 [Pyridostigmine iodide]: 0.436
CC[C@@]1(O)C(=O)OCc2c1cc1n(c2=O)Cc2cc3ccccc3nc2-1 [Camptothecine (S,+)]: 0.477
C=C1C[C@@H]2[C@H](CC[C@]3(C)C(=O)CC[C@@H]23)[C@@]2(C)C=CC(=O)C=C12: 0.322
C=CC[C@]1(O)CC[C@H]2[C@@H]3CCC4=CC(=O)CCC4=C3C=C[C@@]21C: 0.293
Fc1ccc(C(OCCN2CCN(CCCc3ccccc3)CC2)c2ccc(F)cc2)cc1: 0.0478
CCC1(C)CC(=O)NC(=O)C1 [Bemegride]: 0.467

So what does the record say about growth for CC(=O)O[C@H]1CC[C@@]2(C)C(=CC[C@@H]3[C@@H]2CC[C@]2(C)C(=O)CC[C@@H]32)C1 [Dehydroisoandosterone 3-acetate] ? 0.253

// same read-out, input: CC(N)C(O)c1ccccc1 (stereo unspecified) [Phenylpropanolamine hydrochloride] 0.527

Can you handle COP(=O)(OC)C(O)C(Cl)(Cl)Cl (stereo unspecified) next? 0.505

C[N+]1([O-])[C@@H]2C[C@@H](OC(=O)[C@H](CO)c3ccccc3)C[C@H]1[C@@H]1O[C@@H]12 (stereo partly specified) [Scopolamin-N-oxide hydrobromide] , same question. 0.472

Similarly, C[C@@H]1O[C@@H](O[C@@H]2C=C3CC[C@@H]4[C@H](CC[C@]5(C)[C@@H](c6ccc(=O)oc6)CC[C@]45O)[C@@]3(C)CC2)[C@H](O)[C@H](O)[C@H]1O ? 0.626

Let us now turn to CN(C)[C@@H]1C(=O)C(C(N)=O)=C(O)[C@@]2(O)C(=O)C3=C(O)c4c(O)cccc4[C@@](C)(O)[C@H]3C[C@@H]12 [Tetracycline hydrochloride] 0.0518

Try C[C@]12CCC(=O)C=C1C=C[C@@H]1[C@@H]2CC[C@@]2(C)[C@H]1CC[C@@]2(O)CCC(=O)O [Canrenoic acid potassium salt] next. 0.502

Next record, please: CC(C)(N)Cc1ccccc1 [Phentermine hydrochloride] 0.603

---

system: E. coli TESEC Mtb Alr; experiment: growth (OD600 after 10 h); higher = more growth (less inhibition); conditions: arabinose 10000 nM; compound 0.1 mM; raw OD600 reference: median of DMSO wells 0.264, cell-free background 0.041
Where a name gives a salt, the structure may show the parent alone.
Measurement label: growth
In your answer, state the number alone without any accompanying words.

Illustrative cases are given below, each with its answer.
CC(CCc1ccccc1)NC(C)C(O)c1ccc(O)cc1 (centres undefined) [Nylidrin]: 0.285
CC1C=CC=CCCC=CC=CC=CC=CC(OC2OC(C)C(O)C(N)C2O)CC2OC(O)(CC(O)C(O)CCC(O)CC(O)CC(O)CC(=O)OC(C)C(C)C1O)CC(O)C2C(=O)O (centres undefined) [Nystatine]: 0.234
O=C(CCCN1CCC2(CC1)C(=O)NCN2c1ccccc1)c1ccc(F)cc1 [Spiperone]: 0.276
C(#CCN1CCCC1)CN1CCCC1 [Tremorine dihydrochloride]: 0.27
c1ccc2c(c1)Nc1ccccc1S2 [Phenothiazine]: 0.265

Return reported growth; argument: O=C(O)CCCc1ccc(N(CCCl)CCCl)cc1 [Chlorambucil] 0.263

Again, but for C[N+]12CCC(CC1)C(OC(=O)C(O)(c1ccccc1)c1ccccc1)C2 (centres undefined) [Clidinium bromide] 0.273

Lookup S=C(NC1CCCCC1)N1CCC(c2cnc[nH]2)CC1 [Thioperamide maleate] 0.257

Now the same for CC(C)(N)Cc1ccccc1 [Phentermine hydrochloride] 0.273

Hey, just so you know, these numbers are from the supplement of paper PMC9262897.
